// provenance: the SangsterLogP compilation

Assay: method code SF-GLC, from DOI: 10.1016/s0022-3565(25)29827-5, PMID: 4823294
Conditions: pH 7.4
The label is 1 (yes) for logD below 0.9 and 0 (no) for logD equal to or exceeding 0.9.

Some solved entries appear below for comparison.
INSERT INTO assay_data (input_smiles, group_label) VALUES
  ('NC(=O)OCc1ccccc1', '0 (no)'),
  ('CCCCOC(N)=O', '1 (yes)'),
  ('CC(C)(C)OC(N)=O', '1 (yes)'),
  ('CCCCCOC(N)=O', '0 (no)'),
  ('CCCCCCOC(N)=O', '0 (no)');

IN: Lab note: logD threshold 0.9. Does this molecule come in strictly under it? `CCCOC(N)=O`
OUT: 1 (yes)

IN: Lab note: logD threshold 0.9. Does this molecule come in strictly under it? `CC(C)(C)COC(N)=O`
OUT: 0 (no)

IN: Lab note: logD threshold 0.9. Does this molecule come in strictly under it? `CCCCCCCOC(N)=O`
OUT: 0 (no)

IN: Lab note: logD threshold 0.9. Does this molecule come in strictly under it? `CCCCCCCCOC(N)=O`
OUT: 0 (no)

IN: Lab note: logD threshold 0.9. Does this molecule come in strictly under it? `CCC(C)(C)COC(N)=O`
OUT: 0 (no)
